The reported numbers originate from patent US20150232562A1.

target: T1, recombinant human ErbB2/Fc chimera (human, UniProt P04626 23-652); assay: ELISA, coated ErbB2/Fc
T1 construct: bought from R&D Systems; also called rhErbB2-Fc; rhErb2-Fc; Fc part of the bought chimera not given; not described
metric.name: binding result

{"columns": ["binder", "result.value"],
 "data": [
  ["14H61/1-122 (VHH, C-term myc-His6 tag) VHH: EVQLVESGGGLVQAGGSLRLSCAASGRTFSRFAMGWFRQAPGKEREFVAAVRWSDDYTYYADSVKGRFTISRDNAKNTVYLQMNSLSPEDTAVYYCAADEILATLPHEYDYWGQGTQVTVSS", "binds"],
  ["12E11/1-122 (VHH, C-term myc-His6 tag) VHH: EVQLVESGGGLVQAGGSLRLSCAASGRTFSSYAMAWFRQAPGKEREFVGGIRWSDGSTYYADSVKGRFTISRDNAKITVYLQMNSLKPEDTAVYYCAADFYVSTLAHEYDYWGQGTQVTVSS", "binds"]
]}
